Each record here notes measured inhibition.
Test system: Bacteria
Test: Inhibition of bacterial Metallo-beta-lactamase IMP-1 (unknown origin) assessed as substrate hydrolysis at 100 uM using meropenem as substrate by UV-visible spectrometry analysis

molecule: FC(F)(F)c1cc(SCCn2c(-c3ccccc3)n[nH]c2=S)c2ccccc2n1
inhibition: < 30%

Sure, the documented inhibition for O=C(O)CSCCn1c(-c2ccccc2)n[nH]c1=S is < 30%

Sure, the documented inhibition for O=C(O)C(SCCn1c(-c2ccccc2)n[nH]c1=S)c1ccccc1 (stereo unspecified) is 30%

Sure, the documented inhibition for O=[N+]([O-])c1ccc(O)c(CSCCn2c(-c3ccccc3)n[nH]c2=S)c1 is 62%

Sure, the documented inhibition for O=C(O)C(CSCCn1c(-c2cccc(-c3ccccc3)c2)n[nH]c1=S)c1ccccc1 (stereo unspecified) is 56%

Sure, the documented inhibition for S=c1[nH]nc(Cc2ccc3ccccc3c2)n1CCSCc1ccccc1 is 70%
